# melting point per record follows

Sample records with melting point:
1) CNC(=O)NC(=O)C(CC1CCCC1)c1ccc(S(C)(=O)=O)c(F)c1 (stereo not shown) [Example 42] : 199 to 200 °C
2) CNC(=O)NC(=O)C(CC1CCCC1)c1ccc(C(F)(F)F)c(F)c1 (stereo not shown) [Example 32] : 187 to 189 °C
3) CNC(=O)NC(=O)C(CC1CCCC1)c1ccc(S(=O)(=O)C(F)(F)F)cc1 (stereo not shown) [Example 9] : 191 to 192 °C
4) CNC(=O)NC(=O)C(CC1CCCC1)c1ccc(S(C)(=O)=O)c(C(F)(F)F)c1 (stereo not shown) [Example 40] : 268 to 270 °C
5) CC(C)CC(C(=O)NC(N)=O)c1ccc(Cl)cc1 (stereo not shown) [Example 16] : 164 to 165 °C

Report melting point for CNC(=O)NC(=O)C(CC1CCCC1)c1ccc(SC)cc1 (stereo not shown) [Example 10] please.
185 to 186 °C

Reported melting point, compound CNC(=O)NC(=O)C(CC1CCCC1)c1cccc(Cl)c1 (stereo not shown) [Example 2] : ____
52 to 55 °C
